Recorded values, source paper PMC3897949.

# assayed_target: the molecule itself
# assay_explanation: cross-linking; 1 mg/ml protein in 50 mM HEPES pH7.5, 50 mM sodium sulfate; DSS at 5X molar concentration, 1 h at room temperature; SDS-PAGE, coomassie blue

{"protein": "PCAF HAT domain (amino acids 493-658) L512D/V516D (domain or fragment, human, UniProt Q92831 493-658, looked up, p300/CBP associated factor (PCAF, KAT2B), human, HAT domain, residues 493-658; also called LV512DD) VIEFHVVGNSLNQKPNKKIDMWLDGLQNVFSHQLPRMPKEYITRLVFDPKHKTLALIKDGRVIGGICFRMFPSQGFTEIVFCAVTSNEQVKGYGTHLMNHLKEYHIKHDILNFLTYADEYAIGYFKKQGFSKEIKIPKTKYVGYIKDYEGATLMGCELNPRIPYTE", "binding result": "binds"}
